- Tested on: Schistosoma mansoni schistosomula (Liberian)
- assayName: drug effect (1 - score/DMSO control score) (fraction); higher = more antischistosomal effect, active = 0.5 or more; extreme values may be limits of the assay
- conditionContext: 72 h; 10 µM
readoutKind: drug effect
Form field (numeric): enter value without unit.

Consider the following illustrative entries.
>  <compound>
Cc1ccc(NC(=O)c2cc(S(=O)(=O)NC(C)(C)C)ccc2C)nc1

>  <drug effect>
0.375

$$$$
>  <compound>
Cc1ccc(NC(=O)c2nc[nH]c2C(=O)Nc2nc3ccccc3[nH]2)c(C)c1

>  <drug effect>
0.278

$$$$
>  <compound>
CC(=O)NCC1CN(c2ccc(-c3ccc(CO)cc3)c(F)c2)C(=O)O1 (centres undefined)

>  <drug effect>
0.0625

$$$$

Form field: reported drug effect of `Nc1ncnc2c1ncn2[C@@H]1O[C@H](COS(=O)(=O)NC(=O)c2ccccc2O)[C@@H](O)[C@H]1O`
0.125

====

- Test system: Schistosoma mansoni schistosomula (Liberian)
- assayName: drug effect (1 - score/DMSO control score) (fraction); higher = more antischistosomal effect, active = 0.5 or more; extreme values may be limits of the assay
- conditionContext: 24 h; 10 µM
Consider the following compounds and their measured drug effect readings.

>  <compound>
FC(F)(F)c1ccc(N(c2cccnc2)C2CCN(c3ccc(C(F)(F)F)cn3)CC2)cc1

>  <drug effect>
0.2 (inactive)

$$$$
>  <compound>
NCC(=O)N1CCn2c(nc(-c3ccccc3)c2Nc2ccc3c(c2)OCO3)C1

>  <drug effect>
0.297 (inactive)

$$$$
>  <compound>
O=C(Nc1ccc(C(F)(F)F)c(C(F)(F)F)c1)c1cc(Cl)ccc1O

>  <drug effect>
1 (active)

$$$$
>  <compound>
CN(C)CCNC(=O)N1CCCN(c2ncnc3cc(-c4ccccc4)sc23)CC1

>  <drug effect>
< 0 (inactive)

$$$$
>  <compound>
CC(C(=O)N1CCCC1)N1CCN(S(=O)(=O)c2ccc(C(C)(C)C)cc2)CC1 (stereo not drawn)

>  <drug effect>
0.05 (inactive)

$$$$
>  <compound>
Cc1ccc(NC(=O)CC2COc3ccccc3O2)cc1Cl (stereo not drawn)

>  <drug effect>
0.136 (inactive)

$$$$

Form field: reported drug effect of `Clc1cccc(CO[C@H]2CCc3ccccc3[C@@H]2n2ccnn2)c1`
< 0 (inactive)

Form field: reported drug effect of `NS(=O)(=O)c1cccc(-c2ccc3ncc(N4CCOCC4)nc3c2)c1`
0.15 (inactive)

Form field: reported drug effect of `Cc1cc(Nc2ccc(C(F)(F)F)cc2)n2ccnc2n1`
0.0909 (inactive)

Form field: reported drug effect of `O=C(C1CCN(c2cc(-n3cccc3)ncn2)CC1)N1CCc2ccccc2C1`
0.05 (inactive)

Form field: reported drug effect of `COC(=O)Nc1nc2cc(C(=O)c3ccccc3)ccc2[nH]1`
0.15 (inactive)

Form field: reported drug effect of `CCN(CC)S(=O)(=O)c1ccc(Cl)c(C(=O)Nc2ccc3nc(C)sc3c2)c1`
0.05 (inactive)

Form field: reported drug effect of `Cc1cc(O)nc(-n2nc(C)cc2C)n1`
0.15 (inactive)

Form field: reported drug effect of Clc1cccc(C(c2ccc(CN3CCNCC3)cc2)n2ccnc2)c1 (stereo not drawn)
0.405 (inactive)

Form field: reported drug effect of `COC(=O)c1ccc(F)cc1NS(=O)(=O)c1cccc(-c2cnn(Cc3ccccc3)c2)c1`
0.409 (inactive)

====

- Test system: Schistosoma mansoni schistosomula (Liberian)
- assayName: drug effect (1 - score/DMSO control score) (fraction); higher = more antischistosomal effect, active = 0.5 or more; extreme values may be limits of the assay
- conditionContext: 72 h; 10 µM
The reply should name one outcome from true (1) = active, false (0) = inactive

Solved entries:
>  <compound>
O=C(Nc1nc(-c2ccccn2)cs1)C1CC1c1ccccc1F (stereo not given)

>  <labelClass>
false (0)

$$$$
>  <compound>
Cc1ccc(C(=O)Nc2ccc(S(=O)(=O)O)c3cc(S(=O)(=O)O)cc(S(=O)(=O)O)c23)cc1NC(=O)c1cccc(NC(=O)Nc2cccc(C(=O)Nc3cc(C(=O)Nc4ccc(S(=O)(=O)O)c5cc(S(=O)(=O)O)cc(S(=O)(=O)O)c45)ccc3C)c2)c1

>  <labelClass>
false (0)

$$$$
>  <compound>
CCOc1ccc(OCC(=O)Nc2cc(C)cc(C)c2)cc1

>  <labelClass>
false (0)

$$$$
>  <compound>
CC(=O)NC[C@@H]1CN(c2ccc(N3CCOCC3)c(F)c2)C(=O)O1

>  <labelClass>
false (0)

$$$$
>  <compound>
Cc1nn(C(=O)Nc2cccc(C(F)(F)F)c2)c(C)c1Sc1ncccn1

>  <labelClass>
false (0)

$$$$

Now consider the entry below.
Which outcome was entered for the compound Cc1nc(-c2ccccn2)nc(N2CCC(Cc3ccccc3)C2)c1Cl (stereo not given) in this test?
false (0)

====

- Tested on: Schistosoma mansoni schistosomula (Liberian)
- assayName: drug effect (1 - score/DMSO control score) (fraction); higher = more antischistosomal effect, active = 0.5 or more; extreme values may be limits of the assay
- conditionContext: 48 h; 10 µM
readoutKind: drug effect

Consider the following illustrative entries.
>  <molecule>
CC1=NN(c2nc3ccccc3s2)C(=O)C1Cc1cccc2ccccc12 (centres undefined)

>  <drug effect>
0.1 (inactive)

$$$$
>  <molecule>
CC(C)(C)OC(=O)N1CCN(c2nccc(-c3ccc(-c4ccc(Cl)cc4)s3)n2)CC1

>  <drug effect>
0.15 (inactive)

$$$$
>  <molecule>
CC(C)(C)C(=O)N(CCCCCCN1C[C@H](O)[C@@H](O)[C@H](O)[C@H]1CO)C1CCCCCC1

>  <drug effect>
0.556 (active)

$$$$

Continue with the next molecule.
Form field: reported drug effect of `CCOC(=O)c1cc(-c2csc(Nc3c(C)cc(C)cc3C)n2)on1`
0.3 (inactive)

====

Consider the following molecules and their measured drug effect readings.
- System: Schistosoma mansoni schistosomula (Liberian)
- assayName: drug effect (1 - score/DMSO control score) (fraction); higher = more antischistosomal effect, active = 0.5 or more; extreme values may be limits of the assay
- conditionContext: 24 h; 10 µM

Consider the following illustrative entries.
>  <molecule>
Cc1nc(-c2ccccn2)nc(N2CCC(Cc3ccccc3)C2)c1Cl (stereo not given)

>  <systemUnderTest>
Schistosoma mansoni schistosomula (Liberian)

>  <readoutKind>
drug effect

>  <recordedMeasurement>
0.15 (inactive)

$$$$
>  <molecule>
CC1(C)Cc2c(c(N3CCOCC3)nc3snc(Br)c23)CO1

>  <systemUnderTest>
Schistosoma mansoni schistosomula (Liberian)

>  <readoutKind>
drug effect

>  <recordedMeasurement>
0.0455 (inactive)

$$$$
>  <molecule>
CCCNC(=O)N1CCC2(CC1)CC(=O)c1cc(C)ccc1O2

>  <systemUnderTest>
Schistosoma mansoni schistosomula (Liberian)

>  <readoutKind>
drug effect

>  <recordedMeasurement>
0.1 (inactive)

$$$$
>  <molecule>
N=C(N)c1ccc(OCCCCCOc2ccc(C(=N)N)cc2)cc1

>  <systemUnderTest>
Schistosoma mansoni schistosomula (Liberian)

>  <readoutKind>
drug effect

>  <recordedMeasurement>
< 0 (inactive)

$$$$

Continue with the next molecule.
Give drug effect (Schistosoma mansoni schistosomula (Liberian)) of the following molecule: `CN1CCN(CCCOc2ncc(Nc3ncc(-c4ccc(C(F)(F)F)c(F)c4)nc3C(N)=O)cn2)CC1`
1 (active)

====

- Tested on: Schistosoma mansoni schistosomula (NMRI)
- assayName: phenotypic severity score (0-4); higher = more antischistosomal effect, active = 2 or more
- conditionContext: 72 h; 10 µM
readoutKind: phenotypic severity score
Form field (numeric): enter value without unit.

Consider the following illustrative entries.
>  <molecule>
N#Cc1nc(-c2ccccc2F)oc1NCCc1ccccc1

>  <systemUnderTest>
Schistosoma mansoni schistosomula (NMRI)

>  <phenotypic severity score>
0

$$$$
>  <molecule>
CC(C)c1ncc(-c2ccncc2)c([C@H]2CC[C@H](CNC(=O)c3cccnc3)CC2)n1

>  <systemUnderTest>
Schistosoma mansoni schistosomula (NMRI)

>  <phenotypic severity score>
0

$$$$
>  <molecule>
COc1ccc2nc(C)cc(OCC(=O)NCc3ccccc3)c2c1

>  <systemUnderTest>
Schistosoma mansoni schistosomula (NMRI)

>  <phenotypic severity score>
0

$$$$

Give phenotypic severity score (Schistosoma mansoni schistosomula (NMRI)) of the following molecule: `CCN(CC)CCCN1CCN(C(=O)c2cccc(-c3noc(C(F)(F)F)n3)c2)CC1`
1

Give phenotypic severity score (Schistosoma mansoni schistosomula (NMRI)) of the following molecule: `NC(=O)c1cc(-c2ccsc2)ccc1OCCOc1ccccc1`
0

Give phenotypic severity score (Schistosoma mansoni schistosomula (NMRI)) of the following molecule: `CNc1nnc(Sc2cnn(-c3ccccc3)c(=O)c2Cl)s1`
4

Give phenotypic severity score (Schistosoma mansoni schistosomula (NMRI)) of the following molecule: CCc1ccc(C(NCc2nc(N)nc(N(C)C)n2)C(C)C)cc1 (stereo unspecified)
0

Give phenotypic severity score (Schistosoma mansoni schistosomula (NMRI)) of the following molecule: OC[C@H]1O[C@@H](n2c3ccc(Cl)cc3c3c(-c4cc5ccccc5o4)ncnc32)C(O)[C@H]1O (stereo partly specified)
0

Give phenotypic severity score (Schistosoma mansoni schistosomula (NMRI)) of the following molecule: `O=C(NCCc1ccn(-c2ccccc2)n1)C1CCCCC1`
0

Give phenotypic severity score (Schistosoma mansoni schistosomula (NMRI)) of the following molecule: `COc1cc(Br)cc2cc(C(=O)Nc3cccc(C(F)(F)F)c3)c(=O)oc12`
0

Give phenotypic severity score (Schistosoma mansoni schistosomula (NMRI)) of the following molecule: `Cc1ccc(S(=O)(=O)Nc2ccc(CN3CCN(C(=O)c4cccc(C#N)c4)CC3)cc2)cc1`
1
